# ASSAY_TEXT: Absorption/emission maxima and fluorescence quantum yield of free ligand in PBS
# Type: physicochemical
# ASSAY_CONDITIONS: free ligand in PBS
QUANTITY_MEASURED: Absmax
Lab note: record the figure alone, no unit after it.

Entry CN(C)c1ccc(/C=C/C=C2\CCc3ccccc3C2=O)cc1 [compound 24] — recorded Absmax = 397

Entry O=C1/C(=C\c2cc(-c3cccnc3)cs2)Cc2ccccc21 [compound 47] — recorded Absmax = 340

Entry COc1cc(/C=C/C=C2C(=O)c3ccccc3C2=O)cc(OC)c1O [compound 21] — recorded Absmax = 434

Entry O=C1C(=C/C=C/c2ccc(F)cc2)C(=O)c2ccccc21 [compound 18] — recorded Absmax = 332

Entry COc1cc(/C=C/C=C2\Cc3ccccc3C2=O)ccc1O [compound 8] — recorded Absmax = 405

Entry O=C1C(=Cc2coc3ccc(Br)cc3c2=O)C(=O)c2ccccc21 [compound 54] — recorded Absmax = 336

Entry O=C1/C(=C\c2ccc(-c3ccc(CO)cc3)s2)Cc2ccc(O)cc21 [compound 44] — recorded Absmax = 412

Entry COc1cc(-c2ccc(/C=C3/CCc4ccccc4C3=O)s2)ccc1O [compound 50] — recorded Absmax = 417

Entry CN(C)c1ccc(-c2ccc(/C=C/C=C3\Cc4ccc(O)cc4C3=O)cc2)cc1 [compound 30] — recorded Absmax = 414

Entry Nc1cccc(-c2ccc(/C=C3/Cc4ccccc4C3=O)s2)c1 [compound 38] — recorded Absmax = 408

Entry O=C(O)c1ccc(-c2ccc(/C=C/C=C3C(=O)c4ccccc4C3=O)cc2)s1 [compound 35] — recorded Absmax = 414

Entry O=C1/C(=C/C=C/c2ccc([N+](=O)[O-])cc2)Cc2ccccc21 [compound 10] — recorded Absmax = 336

Entry O=C1/C(=C\c2cc(-c3ccc(CO)cc3)cs2)Cc2ccccc21 [compound 46] — recorded Absmax = 368

Entry O=C1/C(=C/C=C/c2ccc(Br)cc2)Cc2ccc(O)cc21 [compound 11] — recorded Absmax = 335

Entry CN(C)c1ncc(-c2ccc(/C=C3/Cc4ccc(O)cc4C3=O)s2)cn1 [compound 43] — recorded Absmax = 386

Entry Cc1ccc2occ(/C=C3/Cc4ccc(O)cc4C3=O)c(=O)c2c1 [compound 57] — recorded Absmax = 326

Entry O=C1C(=Cc2cc(-c3ccc(Br)cc3)no2)C(=O)c2ccccc21 [compound 56] — recorded Absmax = 321

Entry CN(C)c1ccc(/C=C/C=C2\Cc3ccc(O)cc3C2=O)cc1 [compound 12] — recorded Absmax = 406

Entry Cc1ccc2occ(C=C3C(=O)c4ccccc4C3=O)c(=O)c2c1 [compound 53] — recorded Absmax = 428

----------
Would you kindly list Absmax Ligand + Aβ for each of these molecules?
# EXPERIMENTAL_SYSTEM: Aβ fibrils (Homo sapiens)
# Sequence (P05067 672-711): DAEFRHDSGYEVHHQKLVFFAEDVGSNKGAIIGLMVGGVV
# ASSAY_TEXT: Fluorescent properties of ligand-Aβ fibril complex
# Format: physicochemical
Lab note: record the figure alone, no unit after it.

Entry COc1cc(/C=C/C=C2\CCc3ccccc3C2=O)ccc1O — recorded Absmax Ligand + Aβ = 454

Entry O=C1/C(=C\c2ccc(-c3ccc(CO)cc3)s2)Cc2ccccc21 — recorded Absmax Ligand + Aβ = 446

Entry O=C(O)c1ccc(-c2ccc(/C=C/C=C3\Cc4ccc(O)cc4C3=O)cc2)cc1 — recorded Absmax Ligand + Aβ = 443

Entry COc1cc(-c2ccc(/C=C3/Cc4ccccc4C3=O)s2)ccc1O — recorded Absmax Ligand + Aβ = 448

Entry COc1cc(/C=C/C=C2C(=O)c3ccccc3C2=O)ccc1O — recorded Absmax Ligand + Aβ = 438

Entry COc1cc(-c2ccc(/C=C/C=C3\Cc4ccccc4C3=O)cc2)ccc1O — recorded Absmax Ligand + Aβ = 424

Entry COc1ncc(-c2ccc(/C=C3/Cc4ccccc4C3=O)s2)c(OC)n1 — recorded Absmax Ligand + Aβ = 478

Entry CN(C)c1ccc(/C=C/C=C2\CCc3ccccc3C2=O)cc1 — recorded Absmax Ligand + Aβ = 435

Entry O=C(O)c1ccc(-c2ccc(/C=C/C=C3C(=O)c4ccccc4C3=O)cc2)s1 — recorded Absmax Ligand + Aβ = 437

Entry COc1cc(/C=C/C=C2\Cc3ccccc3C2=O)ccc1O — recorded Absmax Ligand + Aβ = 441

Entry CN(C)c1ccc(/C=C/C=C2\Cc3ccccc3C2=O)cc1 — recorded Absmax Ligand + Aβ = 460
